Please respond with reported fold over background (A450) for every item in the list.
- STUDY TARGET: mouse TREM2 truncated stalk peptide (aa 149-163) (mouse) (UniProt Q99NH8)
- TEST NAME: ELISA on biotinylated peptide captured by streptavidin; A450 normalised to isotype control
Answers are plain numbers, in fold.

BINDER: CL0020109 (antibody, V domains shown) VH: EVQLQQSGPVLVKPGASLKMSCRASGYTFTDYYVHWVKQSHGKSLEWIGLINPYTGTTSYNQRFKGKATLTVDKSSSTAYMEVNSLTSEDSAVYYCARSRVYYGSSLFAFWGQGTLVTVSA VL: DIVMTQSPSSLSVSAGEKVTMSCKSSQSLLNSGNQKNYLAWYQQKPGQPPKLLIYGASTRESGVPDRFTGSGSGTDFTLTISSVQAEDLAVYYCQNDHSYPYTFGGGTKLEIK
fold over background (A450), fold: 1.7
//
BINDER: CL0020206 (antibody, V domains shown) VH: EVQLQQSGPVLVKPGASVKMSCKASGYTFTDYYMNWVKQSHGKSLEWIGIINPYSGGISYNQKFKGKAILTVDKSSSTAYMELNSLTSEASAVYYCTRRNWDGRYAMDYWGQGTSVTVSS VL: DIVMTQSHKFMSTSVGDRVSITYKASQDVGSAVAWYQQKPGQSPKLLIYWTSTRHTGVPDRFTGSGSGTDFTLTISNVQSEDLADYFCQQYSSYPFTFGGGTKLEIK
fold over background (A450), fold: 1.6

# lookup: fold over background (A450) of CL0020214 (antibody, V domains shown) VH: QVRLQQSGAELVRPGSSVKLSCKASGYAFSSYWMNWVKQRPGQGLEWIGQIYPGDGDTNYNGNFKGKATLTADNSSSTAYMQLSSLTSEDSAVYFCARRRNGDFGDYAMDYWGQGTSVTVSS VL: QIVLTQSPAIMSASPGEKVTISCSASSSVSYMCWYQQKPGSSPKPWIYRTSTLASGVPARFSGSGSGTSYSLTISSMEAADAATYYCQHYHSYPFTFGAGTKLELK
1.3
